target: human nerve growth factor (beta-NGF) (human, UniProt P01138 122-241); assay: cell-based or functional assay
Sequence (P01138 122-241): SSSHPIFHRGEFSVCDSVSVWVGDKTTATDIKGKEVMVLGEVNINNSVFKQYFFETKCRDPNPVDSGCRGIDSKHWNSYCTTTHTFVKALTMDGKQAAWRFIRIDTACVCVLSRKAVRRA
binders and their reported IC50, FLIPR calcium mobilisation
readout-kind: IC50, FLIPR calcium mobilisation (nM)

1) 1152H5 human IgG4 (antibody, V domains shown) VH: EVQLVQSGAEVKKPGSSVKVSCKASGGTFSTYGISWVRQAPGQGLVWIGGIIPIFDTGNSAQSFQGRVTITADESTSTAYMEVSSLRSDDTAVYYCASSSRIYDMISSLQPYYDMDVWGQGTMVTVSS VL: QAVLTQPSSVSTPPGQKATISCSGSSSNIGNNYVSWYQQLPGTAPKLLIYDNNKRPSGIPDRFSGSKSGTSATLGITGLQTGDEADYYCGTWDSSLSAWVFGGGTKLTVL
0.22
2) 1158A1 human IgG4 (antibody, V domains shown) VH: EVQLVQSGAEVKKPGSSVKVSCKASGGTFSTYGISWVRQAPGQGLEWIGGIIPIFGTGNSAQSFQGRVTITADESTSTAYMEVSSLRSDDTAVYYCASSSRIYDHHNHVGGYYDMDVWGQGTMVTVSS VL: QAVLTQPSSVSTPPGQKVTISCSGSSSNIGNNYASWYQQLPGTAPKLLIYDNNKRPSGIPDRFSGSKSGTSATLGITGLQTGDEADYYCGTWDGSLSAWVFGGGTKLTVL
0.34
